Data origin: the emibetuzumab library of Makowski et al. (2022)

B1: VH:VL chains; a variant is named by its letters at X, in order (parent)
chain 1: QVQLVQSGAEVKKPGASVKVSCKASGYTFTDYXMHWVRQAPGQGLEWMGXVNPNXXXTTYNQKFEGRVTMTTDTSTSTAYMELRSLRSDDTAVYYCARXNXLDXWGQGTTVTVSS
chain 2: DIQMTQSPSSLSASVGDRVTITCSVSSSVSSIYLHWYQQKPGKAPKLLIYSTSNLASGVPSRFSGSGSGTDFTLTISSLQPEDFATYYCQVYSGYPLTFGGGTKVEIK

variants of: B1; experiment: yeast display scFab, FACS + sequencing
QUANTITY NAME: non-specific binding call

VARIANT IDENTIFIER | non-specific binding call
VRKRGALD | binds
YRRGSSGA | binds
YREGGSLD | binds
VRGGGAWV | binds
YRTRGAWF | binds
YRGKDVGV | binds

Prompt line: # get_value(readout='non-specific binding call', item= YRERTAAV )
Response line: binds

Prompt line: # get_value(readout='non-specific binding call', item= YRGRGALS )
Response line: binds

Prompt line: # get_value(readout='non-specific binding call', item= YRTRDSLD )
Response line: no binding

Prompt line: # get_value(readout='non-specific binding call', item= YRRKGSGY )
Response line: binds

Prompt line: # get_value(readout='non-specific binding call', item= YRGKSALA )
Response line: binds

Prompt line: # get_value(readout='non-specific binding call', item= AEERDSVV )
Response line: no binding

Prompt line: # get_value(readout='non-specific binding call', item= VETEGAVY )
Response line: no binding
